EXPERIMENT: Protein binding in ICR mouse serum at 1 ug/ml incubated for 4 hrs by LC-MS/MS analysis
Type: ADME, cell-free
REPORTED CONDITIONS: at 1 µg/mL, read-out: PB (converted)
PARAMETER: fraction unbound at 4 h, 1 ug/ml

                                    compound  comparison_operator  test_result
 0  C[C@H](O)c1nccn1Cc1cc(C#Cc2ccc(CCCO)cc2)on1                    <        0.005
 1  C[C@H](O)c1nccn1Cc1cc(-c2ccc(C#C[C@H]3C[C@H](O)C3)cc2)on1                    =        0.035
 2  C[C@H](O)c1nccn1Cc1cc(-c2ccc(C#CC3(N)CC3)cc2)on1                    =        0.099
 3  C[C@H](O)CN1C[C@@H]2[C@@H](C#Cc3ccc(-c4cc([C@@H](CN)n5ccnc5[C@H](C)O)no4)cc3)[C@@H]2C1                    =        0.151
 4  C[C@H](O)c1nccn1Cc1cc(-c2ccc(C#CCCCO)cc2)on1                    =        0.049
 5  C[C@H](O)c1nccn1Cc1cc(-c2ccc(C#C[C@@H]3[C@H]4CN(C=O)C[C@@H]34)cc2)on1                    =         0.09
 6  COCCN1CCN(c2ccc(C#Cc3cc(Cn4ccnc4[C@H](C)O)no3)cc2)CC1                    =        0.083
 7  COCC(O)CN1C[C@@H]2[C@@H](C#Cc3ccc(-c4cc(Cn5ccnc5[C@H](C)O)no4)cc3)[C@@H]2C1 (mixture of isomers)                    =        0.082
 8  C[C@H](O)c1nccn1[C@H](CN)c1cc(-c2ccc(C#CC34CC(N)(C3)C4)cc2)on1                    =        0.084
 9  COCC(O)CN1C[C@@H]2[C@@H](C#Cc3ccc(-c4cc(Cn5ccnc5[C@H](C)O)on4)cc3)[C@@H]2C1 (mixture of isomers)                    =        0.077
10  C[C@H](O)c1nccn1[C@H](CN)c1cc(-c2ccc(C#C[C@H]3C[C@H](O)C3)cc2)on1                    =         0.07
11  C[C@H](O)c1nccn1Cc1cc(-c2ccc(C#CC34CC(N)(C3)C4)cc2)no1                    =        0.069
12  C[C@H](O)c1nccn1Cc1cc(-c2ccc(C#CC3(N)CC3)cc2)no1                    =         0.15
13  C[C@H](O)c1nccn1Cc1cc(-c2ccc(C#CC34CC(N)(C3)C4)cc2)on1                    =        0.034
14  C[C@H](O)c1nccn1[C@H](CN)c1cc(-c2ccc(C#C[C@@H]3[C@H]4CN(C=O)C[C@@H]34)cc2)on1                    =         0.18
15  C[C@H](O)c1nccn1Cc1cc(-c2ccc(C#C[C@@H]3[C@H]4CN(CCCC(=O)O)C[C@@H]34)cc2)on1                    =        0.241
16  C[C@H](O)c1nccn1Cc1cc(C#Cc2ccc(OC3CN(CCCO)C3)cc2)on1                    =        0.165

----------
EXPERIMENT: Inhibition of Escherichia coli LpxC using DP-3-0-(R-3-hydroxymyristoy1)-N-acetylglucosamine as substrate incubated for 120 mins by fluorescamine assay
pIC50: −log10 of the molar value.
PARAMETER: pIC50

In [3]: df
Out[3]:
                                   compound  test_result
0  C[C@H](O)c1nccn1Cc1cc(-c2ccc(C#CCCCO)cc2)on1         7.29
1  C[C@H](O)c1nccn1Cc1cc(C#Cc2ccc(OC3CN(CCCO)C3)cc2)on1         6.42
2  COCC(O)CN1C[C@@H]2[C@@H](C#Cc3ccc(-c4cc(Cn5ccnc5[C@H](C)O)on4)cc3)[C@@H]2C1 (mixture of isomers)         7.01
3  C[C@H](O)c1nccn1Cc1cc(-c2ccc(C#C[C@@H]3[C@H]4CN(C=O)C[C@@H]34)cc2)on1         7.41

----------
EXPERIMENT: Toxicity in iv dosed ICR mouse assessed as maximum tolerated dose
Assay type: organism-based
REPORTED CONDITIONS: in vivo
PARAMETER: MTD

>>> df
                         structure_notation  test_result
0  C[C@H](O)c1nccn1Cc1cc(-c2ccc(C#C[C@@H]3[C@H]4CN(C=O)C[C@@H]34)cc2)on1    100 mg/kg
1  C[C@H](O)c1nccn1[C@H](CN)c1cc(-c2ccc(C#CC34CC(N)(C3)C4)cc2)on1    100 mg/kg
2  C[C@H](O)CN1C[C@@H]2[C@@H](C#Cc3ccc(-c4cc([C@@H](CN)n5ccnc5[C@H](C)O)no4)cc3)[C@@H]2C1  ≥ 200 mg/kg
3  C[C@H](O)c1nccn1Cc1cc(-c2ccc(C#C[C@@H]3[C@H]4CN(CCCC(=O)O)C[C@@H]34)cc2)on1  ≥ 200 mg/kg
4  C[C@H](O)c1nccn1[C@H](CN)c1cc(-c2ccc(C#C[C@H]3C[C@H](O)C3)cc2)on1  ≥ 200 mg/kg
5  C[C@H](O)c1nccn1[C@H](CN)c1cc(-c2ccc(C#C[C@@H]3[C@H]4CN(C=O)C[C@@H]34)cc2)on1  ≥ 200 mg/kg

----------
EXPERIMENT: Protein binding in human serum at 1 ug/ml incubated for 4 hrs by LC-MS/MS analysis
Format: ADME, cell-free
REPORTED CONDITIONS: at 1 µg/mL, read-out: PB (converted)
PARAMETER: fraction unbound at 4 h, 1 ug/ml

>>> print(df.to_string())
                                   compound                         parameter  test_result
0  COCC(O)CN1C[C@@H]2[C@@H](C#Cc3ccc(-c4cc(Cn5ccnc5[C@H](C)O)on4)cc3)[C@@H]2C1 (mixture of isomers)  fraction unbound at 4 h, 1 ug/ml        0.076
1  C[C@H](O)c1nccn1Cc1cc(-c2ccc(C#CC3(N)CC3)cc2)on1  fraction unbound at 4 h, 1 ug/ml         0.07
2  C[C@H](O)c1nccn1Cc1cc(-c2ccc(C#C[C@@H]3[C@H]4CN(C=O)C[C@@H]34)cc2)on1  fraction unbound at 4 h, 1 ug/ml        0.095
3  C[C@H](O)c1nccn1Cc1cc(-c2ccc(C#C[C@H]3C[C@H](O)C3)cc2)on1  fraction unbound at 4 h, 1 ug/ml        0.017

----------
System: Klebsiella pneumoniae
EXPERIMENT: In vivo antibacterial activity against Klebsiella pneumonia 4102 infected in ICR mouse assessed as mouse survival rate at 25 mg/kg, sc administered once after 1 hr of infection and observed for 7 days relative to control
Type: functional
REPORTED CONDITIONS: time 7 day
PARAMETER: Activity (%)

                                   compound  test_result
0  COCC(O)CN1C[C@@H]2[C@@H](C#Cc3ccc(-c4cc(Cn5ccnc5[C@H](C)O)on4)cc3)[C@@H]2C1 (mixture of isomers)           17
1  COCC(O)CN1C[C@@H]2[C@@H](C#Cc3ccc(-c4cc(Cn5ccnc5[C@H](C)O)no4)cc3)[C@@H]2C1 (mixture of isomers)           33
2  C[C@H](O)c1nccn1Cc1cc(-c2ccc(C#CC3(N)CC3)cc2)on1           67
3  C[C@H](O)c1nccn1Cc1cc(-c2ccc(C#C[C@H]3C[C@H](O)C3)cc2)on1            0
4  C[C@H](O)c1nccn1Cc1cc(-c2ccc(C#CC34CC(N)(C3)C4)cc2)on1            0

----------
Test system: Escherichia coli
EXPERIMENT: Antibacterial activity against Escherichia coli ATCC 25922 by CLSI based broth microdilution method
Format: functional
As shown below, each of these compounds has a reported log10 MIC value.
PARAMETER: log10 MIC (log10 of the value in µg/mL)

>>> print(df.to_string())
                                   compound  test_result
0  C[C@H](O)c1nccn1Cc1cc(-c2ccc(C#C[C@H]3C[C@H](O)C3)cc2)on1        -0.92
1  C[C@H](O)c1nccn1[C@H](CN)c1cc(-c2ccc(C#CC34CC(N)(C3)C4)cc2)on1        -0.30
2  COCC(O)CN1C[C@@H]2[C@@H](C#Cc3ccc(-c4cc(Cn5ccnc5[C@H](C)O)on4)cc3)[C@@H]2C1 (mixture of isomers)        -0.30
3  COCCN1CCN(c2ccc(C#Cc3cc(Cn4ccnc4[C@H](C)O)no3)cc2)CC1        -0.60
4  C[C@H](O)c1nccn1[C@H](CN)c1cc(-c2ccc(C#C[C@H]3C[C@H](O)C3)cc2)on1        -0.60
5  C[C@H](O)c1nccn1Cc1cc(-c2ccc(C#C[C@@H]3[C@H]4CN(C=O)C[C@@H]34)cc2)on1         0.00
6  C[C@H](O)c1nccn1Cc1cc(-c2ccc(C#CC3(N)CC3)cc2)on1        -0.30
7  C[C@H](O)c1nccn1[C@H](CN)c1cc(-c2ccc(C#C[C@@H]3[C@H]4CN(CCCC(=O)O)C[C@@H]34)cc2)on1         0.60

Data provenance is ChEMBL document CHEMBL4680332.
